System: PANC-1
Assay: Cytotoxicity of compounds, CellTiter-Glo
Type: cell-based
Details: Homo sapiens, Table 8, read-out: (EC50)
measured.property: EC50

Which EC50 is listed for CN[C@H](C(=O)N[C@H](C(=O)N(C)[C@H](/C=C(\C)C(=O)NS(=O)(=O)Cc1ccccc1)C(C)C)C(C)(C)C)C(C)(C)c1ccccc1 ?
0.759 nM

---

Tested on: HCC1954 cells
Assay: Cytotoxicity assay of SMCC- and LC-SPDP-linked ADCs and free compounds
Format: cell-based
Conditions: Homo sapiens, HCC1954, Table 9, Coupling #1, read-out: HCC1954 Best-fit EC50
measured.property: EC50 (nM)
Write down the numeric answer in nM and omit the unit.

Which EC50 is listed for CN[C@H](C(=O)N[C@H](C(=O)N(C)[C@H](/C=C(\C)C(=O)NS(=O)(=O)CCCS)C(C)C)C(C)(C)C)C(C)(C)c1ccccc1 ?
2.1

More entries:
Which EC50 is listed for CN[C@H](C(=O)N[C@H](C(=O)N(C)[C@H](/C=C(\C)C(=O)NS(=O)(=O)CCS)C(C)C)C(C)(C)C)C(C)(C)c1ccccc1 ?
8.1

---

EC50 values for the compounds below.
Test system: Jurkat cells
Assay: Cytotoxicity of compounds, CellTiter-Glo
Format: cell-based, Human
Conditions: Table 6; Compound Cytotoxicity on Jurkat; read-out: EC50
Write down the numeric answer in nM and omit the unit.

Which EC50 is listed for CN[C@H](C(=O)N[C@H](C(=O)N(C)[C@H](/C=C(\C)C(=O)NS(=O)(=O)Cc1ccccc1[N+](=O)[O-])C(C)C)C(C)(C)C)C(C)(C)c1ccccc1 ?
0.531

More entries:
Which EC50 is listed for CN[C@H](C(=O)N[C@H](C(=O)N(C)[C@H](/C=C(\C)C(=O)NS(=O)(=O)Cc1ccccc1C#N)C(C)C)C(C)(C)C)C(C)(C)c1ccccc1 ?
0.753

---

System: MiaPaCa2
Experiment: Cytotoxicity of compounds, CellTiter-Glo
Type: cell-based
Settings: Homo sapiens; Table 8; Mia PaCa-2; read-out: (EC50)
measured.property: pEC50
Units for pEC50: none; it is -log10 of a concentration expressed in mol/L.

Which pEC50 is listed for CN[C@H](C(=O)N[C@H](C(=O)N(C)[C@H](/C=C(\C)C(=O)NS(=O)(=O)Cc1ccccc1)C(C)C)C(C)(C)C)C(C)(C)c1ccccc1 [Compound 14] ?
9.48
